Test system: HOP-62 NSCLC
PROTOCOL_NOTES: NCI tumour cell line growth inhibition, 48 h
TEST_READOUT: TGI

> print(dat)
                                   compound  measured.target  test.readout  reported.value
1  CC(=O)OC1(C)N=NC2(CCCCC2)O1 (stereo not given)     HOP-62 NSCLC           TGI        > 100 µM
2  CC(C)(CN1CCCCC1)C(/C=C/c1ccc(Cl)cc1)=N\NC(=O)N/N=C(/C=C/c1ccc(Cl)cc1)C(C)(C)CN1CCCCC1     HOP-62 NSCLC           TGI         14.2 µM
3               C=CCNC(=S)N/C=C(\C#N)C(N)=O     HOP-62 NSCLC           TGI        > 100 µM

query: Could you please provide reported TGI for N#CC(C(=O)CCC(=O)Nc1ccc(Cl)c(Cl)c1)c1ccccc1 (stereo not given) ? Thanks!
result: > 100 µM

query: Could you please provide reported TGI for COC(=O)c1ccc(Cc2cc(Cc3ccc(C(=O)OC)cc3)cc(Cc3ccc(C(=O)OC)cc3)c2)cc1 ? Thanks!
result: > 25 µM

query: Could you please provide reported TGI for C/C(CN1C(=O)c2ccccc2C1=O)=N\NS(=O)(=O)c1ccc(Cl)cc1 ? Thanks!
result: > 100 µM

query: Could you please provide reported TGI for C=C1C[C@H](O)[C@H](Br)C(C)(C)[C@@]12CCC(C)=C(Cl)C2 ? Thanks!
result: 4.92 µM

query: Could you please provide reported TGI for CN(C)CC(O)c1ccc(/C=C/c2ccc(Cl)cc2)cc1 (stereo not given) ? Thanks!
result: 14 µM

query: Could you please provide reported TGI for CCOC(=O)CCC(NC(=O)C(N)Cc1ccc(N(CCCl)CCCl)cc1)C(=O)OCC (stereo not given) ? Thanks!
result: 7.9 µM

query: Could you please provide reported TGI for [O-][Cl+3]([O-])([O-])[O-].[O]=[Ru]=[O].c1ccc(-c2ccccn2)nc1.c1ccc(-c2ccccn2)nc1 ? Thanks!
result: > 100 µM

====

Entries and their TGI
Tested on: NCI-H226 lung
PROTOCOL_NOTES: NCI tumour cell line growth inhibition, 48 h

COMPOUND	TGI
C[C@@H]1CC[C@H]2C(C)(C)[C@H]3C[C@@]12CC[C@@]3(C)O	> 100 µM
CNC(=O)NCCCC(NC(C)=O)C(=O)NCc1ccccc1 (stereo not drawn)	> 100 µM
Nc1nc(Cl)cc(OCC2(CO)CC=CC2)n1	> 100 µM
COc1cc(-c2nc3sccn3c2-c2ccnc(NCCNS(=O)(=O)c3ccc(F)cc3)n2)ccc1F	6.05 µM
COCOC1/C=C/CCCCC(=O)C(C)C#CC1 (stereo not drawn)	35.3 µM
COC(=O)[C@]1(C)CCC[C@@]2(C)C1CC[C@@]13C=C(C(C)C)[C@@H](CC1=O)CC23 (stereo partly drawn)	39 µM
O=C(C(=O)n1ccc2ccccc21)n1ccc2ccccc21	> 100 µM
COc1ccc(C(C)NNC(=O)c2ccncc2)cc1OC (stereo not drawn)	> 100 µM

Continue with the compound presented below.
query: Could you please provide reported TGI for O=C(Nc1nn2c(-c3cc(C(F)(F)F)cc(C(F)(F)F)c3)nnc2s1)C1CCCC1 ? Thanks!
result: > 100 µM
